- assay-target: T1, canine NGF (canine, UniProt Q29074 110-229 (pig entry), limits assumed)
- T1 construct: The protein was secreted from CHO cells and purified; also called cNGF; canine β-NGF
- T1 chain: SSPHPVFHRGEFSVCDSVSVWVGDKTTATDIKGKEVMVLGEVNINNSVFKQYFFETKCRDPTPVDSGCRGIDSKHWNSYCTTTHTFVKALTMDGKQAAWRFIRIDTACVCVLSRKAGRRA
- measurement-notes: SPR (Biacore T200), 100 nM mAb on NGF chip, similarity to parent mAb
Listing: Percent Similarity Score (KD on cN) of selected binders
Your answer is read as %, so omit the unit and give the number.

[[record]]
binder = "can9L12VH_G55A (antibody, V domains shown) VH: EVQLVESGGDLVKPGGSLRLSCVASGFTFSSHGMHWVRQSPGKGLQWVAVINSGASSTYYTDAVKGRFTISRDNAKNTVYLQMNSLRAEDTAMYYCAKESVGGWEQLVGPHFDYWGQGTLVIVSS VL: QSVLTQPTSVSGSLGQRVTISCSGSTNNIGILGASWYQLFPGKAPKLLVYGNGNRPSGVPDRFSGADSGDSVTLTITGLQAEDEADYYCQSFDTTLGAHVFGGGTHLTVL"
endpoint_unit = "%"
measured_result = 100

[[record]]
binder = "can9L12VL_N52A (antibody, V domains shown) VH: EVQLVESGGDLVKPGGSLRLSCVASGFTFSSHGMHWVRQSPGKGLQWVAVINSGGSSTYYTDAVKGRFTISRDNAKNTVYLQMNSLRAEDTAMYYCAKESVGGWEQLVGPHFDYWGQGTLVIVSS VL: QSVLTQPTSVSGSLGQRVTISCSGSTNNIGILGASWYQLFPGKAPKLLVYGAGNRPSGVPDRFSGADSGDSVTLTITGLQAEDEADYYCQSFDTTLGAHVFGGGTHLTVL"
endpoint_unit = "%"
measured_result = 100

[[record]]
binder = "can9L12VH_S53A (antibody, V domains shown) VH: EVQLVESGGDLVKPGGSLRLSCVASGFTFSSHGMHWVRQSPGKGLQWVAVINAGGSSTYYTDAVKGRFTISRDNAKNTVYLQMNSLRAEDTAMYYCAKESVGGWEQLVGPHFDYWGQGTLVIVSS VL: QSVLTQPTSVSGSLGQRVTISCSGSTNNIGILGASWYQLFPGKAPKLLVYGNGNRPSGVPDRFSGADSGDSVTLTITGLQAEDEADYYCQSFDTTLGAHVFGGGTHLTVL"
endpoint_unit = "%"
measured_result = 100

[[record]]
binder = "can48L2VL_T26A (antibody, V domains shown, CDR scanning mutant of ZTS-842 (48L2)) VH: EVQLVESGGDLVKPGGSLRLSCVASGFTFSTYGINWVRQAPGKGLQWVAYISSGGSSTYYADPVKGRFTISRDDAKNMLYLQMNSLRAEDTAIYYCAGSRYTYAYGGGYEFHFWGQGTLVTVSS VL: QAVLNQPASVSGALGQKVTISCSGSAMDIDIFGVSWYQQLPGKAPKLLVDSDGDRPSGIPDRFSGSRSGNSGTLTITGLQAEDEADYHCQSGDSTLGALAIFGGGTHVTVL"
endpoint_unit = "%"
measured_result = 97.3


# evaluate next
Q: Input can9L12VH_V108A (antibody, V domains shown) VH: EVQLVESGGDLVKPGGSLRLSCVASGFTFSSHGMHWVRQSPGKGLQWVAVINSGGSSTYYTDAVKGRFTISRDNAKNTVYLQMNSLRAEDTAMYYCAKESVGGWEQLAGPHFDYWGQGTLVIVSS VL: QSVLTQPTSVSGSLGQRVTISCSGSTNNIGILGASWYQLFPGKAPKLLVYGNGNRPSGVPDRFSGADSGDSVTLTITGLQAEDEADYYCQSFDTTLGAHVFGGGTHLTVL , output reported Percent Similarity Score (KD on cN).
Ans: 93.2

Numbers sourced from patent US20210221899A1.
